# Measurement notes: Pharmacokinetic experiment in rats after intragastric administration
# Format: in vivo
# Condition description: rat, po, female SD rats, 10 mg/kg, plasma
Each entry below carries its reported Cmax.
Give the value, in units of ng/mL, as a plain number.

The cases that follow already have their Cmax on record.
Compound | Cmax (ng/mL)
COc1cc2c(Oc3ccc(NC(=O)C4(C(=O)Nc5ccc(F)cc5)CC4)cc3F)ccnc2cc1OCCCCCCSC(C)=O | 377
COc1cc2c(Oc3ccc(NC(=O)C4(C(=O)Nc5ccc(F)cc5)CC4)cc3F)ccnc2cc1OCCCCCNC(=O)CSC(=O)C(C)(C)C | 1000
COc1cc2c(Oc3ccc(NC(=O)C4(C(=O)Nc5ccc(F)cc5)CC4)cc3F)ccnc2cc1OCCCCCCCSC(C)=O | 946
COc1cc2c(Oc3ccc(NC(=O)C4(C(=O)Nc5ccc(F)cc5)CC4)cc3F)ccnc2cc1OCCCCCNC(=O)CSC(C)=O | 1590
COc1cc2c(Oc3ccc(NC(=O)C4(C(=O)Nc5ccc(F)cc5)CC4)cc3F)ccnc2cc1OCCCCCNC(=O)CSC(=O)[C@H](N)Cc1cn(C)c2ccccc12 [Example 93, benzenesulfonate] | 429

Now consider a different compound.
input: Kindly indicate its recorded Cmax. Item: COc1cc2c(Oc3ccc(NC(=O)C4(C(=O)Nc5ccc(F)cc5)CC4)cc3F)ccnc2cc1OCCCCCNC(=O)CSSC
output: 724
